experiment: amyloid nucleation score (Sup35N fusion, yeast selection) (log enrichment); library NNK2; higher = more nucleation; inactive = no reads after selection;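 note: zero at mode of non-aggregating sequences after 7 days selection at 30°C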
Quick reference: amyloid nucleation score of the listed items.
ATTRIBUTE MEASURED: amyloid nucleation score

* NYMYGLNSVKSVGWLSDI | 0.069
* SWVLLAY | 0.45
* SLFDFAVFNMNYESNACISR | 0.451
* RFWIEVEVYDVISFVYLERW | 0.428
* TSDLNNSSSMKAYSNEHSGC | 0.411
* NILWSNLGRMCRQLFAVFWS | -0.738
* SDVYLTICHFFGHNLKVLPR | 1.38
* LFAYYGWVFYMSIRCVHMGM | -0.583
* GFQFLIGLSHLNGYLITPRY | 3.42
* NARLRYGSL | -0.101
* YLGGMGSICDVNPCLYNRFL | 0.655
* SIILLDYCPRRNSSTIALRH | -0.118
* IGTEWVFVM | 0.17
* IILRSCMYCGSLAIIKGWMS | 2.91
* CIYRHAFVLFTKPLNFGRVR | -0.166
* SLHRFYYSHLYALRMRGNSR | 6.16
* SNCFHLVW | -0.031
* DWFSTLHLIGSAS | -0.041
* DFMRELYFMGSRPFEMLYMY | 0.102
* ESKVAIA | -0.247
* DSSSVGGVLPVCVNSKSMED | -0.236
* LTGALREFPIYSGANDIWWR | -0.796
* VKNFYNSSINGLGLYMNMRF | 2.43
* LYSVGVR | -0.387
* LCMCLRNMLSPAMVVTSNPP | 0.737
* VTDRNIRLDPVALKHASVYG | -0.368
* KSQLYNYAVSM | -1.59
* TFAQYPSLGNSFSGWGYCVK | -2.02
* CNRQAAMKAPSETCDVVACF | 4.52
* DWQYRLKSVLVFRWQ | 3.5
* HCHWWEGWRVEVYCLFPVTT | 7.85
* RMLGFD | -0.147

====

test: amyloid nucleation score (Sup35N fusion, yeast selection) (log enrichment); library NNK3; higher = more nucleation; inactive = no reads after selection
ATTRIBUTE MEASURED: amyloid nucleation score

• YSDFAWDPRSKNKYGWHPRL = inactive
• MACKLSTRKSSNWGKHLLCY = inactive
• LFDMLMHTSPC = inactive
• FYKLRHQVRTKISERYLPDS = inactive
• SIPNTTFIFSLL = 1.19
• IVYREVCVFVNM = 1.78
• FSFCIGRMCDLQALTASCLN = inactive
• VVLWWS = inactive
• NIPPLTLLAVVGS = inactive
• LREKND = inactive
• DENVALFFLF = inactive
• YNRFKKLSMA = inactive
• ARSARGLGQRYLLYMYCLWL = inactive
• GSEQSVEDGFAWMKDTYFCL = inactive
• SAYYCLCMLMGHHWGRNELY = 0.277
• YVLCFVVELWIGFSDDWISW = inactive
• LEYCVNL = inactive
• YYCEFGLFELKQTYCRLFWG = inactive
• MWVLSV = inactive
• DNTQLSVCWSLSPDTVWKLG = inactive
• MHLVYQDILSYIAWSRVPLR = inactive
• VLRVDRGGTIMRYPCLG = inactive
• TNTSFSNWRCTPDRGIM = inactive
• HHIFVFQGLASLNLHTDWML = 1.62
• MYWTNRHLQNIFWVKRNCGM = inactive
• MCNFCQLFFTLLITSLFKLG = 0.807
• FIRLFEYMRGLPLLVKNDSV = 0.234
• SLVYACSSEL = inactive
• CMLDKSAIIMTRMECIVLSY = inactive
• WDYILGFGHVSQRARMESFD = inactive
• FLACSDVVYSDN = inactive
• NSNSYLGTNFILNQYVLCID = inactive
• AFDTILAEYLCYFLL = 1.7
• FFSSGVVRQAYVLVAEDNVS = inactive
• CCSGLAMAFRFYASYSGAIY = inactive
• VIGAFRLYNFNVALISSNIS = inactive
• NVEMLFNNSHHSTDEDAWYD = inactive
• DSLLDGYSHWAKWGSTRCVR = inactive
• WKCVLMTSATHMPQYPHGCG = inactive
• RVKRYSMELGIFLDLRVT = inactive
• VAQSFEIGYYSGLYIYYCSV = inactive
• YRAECNNFLMPLCCTEFFQI = 2.2
• GYFRWSRAFQLPWNSWSEWQ = inactive
• ERPSLVEW = inactive
• FSNSRDSILWHRFGRICASY = 1.58
• CFDAYIAYLSMRCWYPKNNC = 0.015
• SSFYCRAFGDRNVWKWQWCL = inactive
• SGWTPYLCSSSYELFREQRK = -0.084
• RMFNDSLNRV = inactive
• LYMNATLSYCGTYCMVTQMV = inactive
• FFARDVRSN = inactive
• LSIDMSLYLCSTFYFK = 2.31
• NFVMLEKPDRTDLPGCTKQR = inactive
• PVVTVHAWHRFNMHL = inactive
• RKGSVKEFRYNMSNLESVCS = inactive
• SYNHEKLK = inactive
• SSAGVGVAKVGARHRLRRCW = inactive
• FRGFIAVDAVGMVTNYIIKY = 1.89
• LFWYTAH = -0.361
• KRNSYTMFLA = inactive
• PSSLKCKLAI = inactive
• QPVTRLFFISGSRGDLVEKH = inactive
• MRRSMAVAMNRSVLYDEC = 0.581
• PRTCMATSGPSGGHKSLFGF = inactive
• VFMNKGQRV = inactive
• SLRFMLWLLL = inactive
• TIFRSNDLRQYFWMA = 1.63
• TYGNLFNNCDKIYRRQNRSL = inactive
• LDSGFICMTELIGVVPH = inactive
• VCTTMCDTRWVTISYF = inactive
• NWMGTGGYDMDDFFE = inactive
• HIWGIRKCDPPLTVVMFQSL = inactive
• WYMECTVACSSIICSWKWGL = inactive

// provenance: the supplement of paper PMC12042874
